# systemName: human CDK4 and genetically truncated (1-264) cyclin D3 (Homo sapiens)
# Sequence (P11802 whole entry, the tested form may be a part): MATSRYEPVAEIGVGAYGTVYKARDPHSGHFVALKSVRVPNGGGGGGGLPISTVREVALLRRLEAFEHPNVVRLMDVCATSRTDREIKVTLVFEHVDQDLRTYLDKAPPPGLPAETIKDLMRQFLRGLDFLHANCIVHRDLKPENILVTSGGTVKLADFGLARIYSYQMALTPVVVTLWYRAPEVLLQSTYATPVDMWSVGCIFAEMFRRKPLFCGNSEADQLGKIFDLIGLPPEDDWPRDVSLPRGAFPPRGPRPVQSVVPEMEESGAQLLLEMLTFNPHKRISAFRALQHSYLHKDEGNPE
# Sequence (P30281 1-264 partner): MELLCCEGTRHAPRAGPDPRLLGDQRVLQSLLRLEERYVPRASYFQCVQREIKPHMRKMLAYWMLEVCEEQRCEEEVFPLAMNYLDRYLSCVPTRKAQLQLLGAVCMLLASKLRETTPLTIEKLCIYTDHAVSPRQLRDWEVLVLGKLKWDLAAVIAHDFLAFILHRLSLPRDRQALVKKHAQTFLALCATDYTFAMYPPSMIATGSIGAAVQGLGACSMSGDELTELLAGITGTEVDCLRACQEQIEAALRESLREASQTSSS
# assayExplanation: Inhibition of CDK4/Cyclin D Retinoblastoma Kinase Activity
# Assay type: biochemical
# conditionInfo: 0.03 μM compound; Table 4
reportedMetric: CDK4 % Inhibition at 0.03 μM (%)
Response body: numeric value in %, unit text excluded.

Need CDK4 % Inhibition at 0.03 μM, item Nc1nc(NC2CCN(C(=O)c3ccc(Cl)cc3)CC2)sc1C(=O)c1c(F)cccc1F [Example Q27]
76

Need CDK4 % Inhibition at 0.03 μM, item CCOC(=O)N1CCC(Nc2nc(N)c(C(=O)c3c(F)cccc3F)s2)CC1 [Example Q8]
15

Need CDK4 % Inhibition at 0.03 μM, item CC(C)(C)c1ccc(C(=O)N2CCC(Nc3nc(N)c(C(=O)c4c(F)cccc4F)s3)CC2)cc1 [Example Q34]
56

Need CDK4 % Inhibition at 0.03 μM, item Nc1nc(NC2CCN(C(=O)[C@@H]3C[C@H]3c3ccccc3)CC2)sc1C(=O)c1c(F)cccc1F (relative stereo) [Example Q55]
43

Need CDK4 % Inhibition at 0.03 μM, item Nc1nc(NC2CCN(C(=O)c3ccc(C(F)(F)F)cc3)CC2)sc1C(=O)c1c(F)cccc1F [Example Q33]
65

Need CDK4 % Inhibition at 0.03 μM, item Nc1nc(NC2CCN(C(=O)c3ccc(F)cc3)CC2)sc1C(=O)c1c(F)cccc1F [Example Q26]
60

Need CDK4 % Inhibition at 0.03 μM, item COc1ccc(C(=O)N2CCC(Nc3nc(N)c(C(=O)c4c(F)cccc4F)s3)CC2)cc1OC [Example Q21]
14

Need CDK4 % Inhibition at 0.03 μM, item Nc1nc(NC2CCN(C(=O)CCC3CCCC3)CC2)sc1C(=O)c1c(F)cccc1F [Example Q58]
53

Need CDK4 % Inhibition at 0.03 μM, item Nc1nc(NC2CCN(C(=O)Cc3cccs3)CC2)sc1C(=O)c1c(F)cccc1F [Example Q65]
31

Need CDK4 % Inhibition at 0.03 μM, item CCCCc1ccc(C(=O)N2CCC(Nc3nc(N)c(C(=O)c4c(F)cccc4F)s3)CC2)cc1 [Example Q36]
45

Need CDK4 % Inhibition at 0.03 μM, item CCN(CC)C(=O)N1CCC(Nc2nc(N)c(C(=O)c3c(F)cccc3F)s2)CC1 [Example Q3]
11

Need CDK4 % Inhibition at 0.03 μM, item COc1cccc(CC(=O)N2CCC(Nc3nc(N)c(C(=O)c4c(F)cccc4F)s3)CC2)c1 [Example Q79]
59

Need CDK4 % Inhibition at 0.03 μM, item CCOC(=O)C(=O)N1CCC(Nc2nc(N)c(C(=O)c3c(F)cccc3F)s2)CC1 [Example Q39]
17

Need CDK4 % Inhibition at 0.03 μM, item Nc1nc(NC2CCN(C(=O)c3ccccc3Cl)CC2)sc1C(=O)c1c(F)cccc1F [Example Q13]
48

Need CDK4 % Inhibition at 0.03 μM, item COc1ccc(CC(=O)N2CCC(Nc3nc(N)c(C(=O)c4c(F)cccc4F)s3)CC2)cc1OC [Example Q72]
43

Need CDK4 % Inhibition at 0.03 μM, item Nc1nc(NC2CCN(C(=O)c3cccc([N+](=O)[O-])c3)CC2)sc1C(=O)c1c(F)cccc1F [Example Q69]
80

Need CDK4 % Inhibition at 0.03 μM, item CC(=O)OCC(=O)N1CCC(Nc2nc(N)c(C(=O)c3c(F)cccc3F)s2)CC1 [Example Q76]
31

Need CDK4 % Inhibition at 0.03 μM, item CCCCC(CC)COC(=O)N1CCC(Nc2nc(N)c(C(=O)c3c(F)cccc3F)s2)CC1 (centres unmarked) [Example Q7]
5

Need CDK4 % Inhibition at 0.03 μM, item Cc1ccc(C(=O)N2CCC(Nc3nc(N)c(C(=O)c4c(F)cccc4F)s3)CC2)cc1 [Example Q35]
64

Need CDK4 % Inhibition at 0.03 μM, item Nc1nc(NC2CCN(C(=O)c3ccccc3I)CC2)sc1C(=O)c1c(F)cccc1F [Example Q52]
53

Need CDK4 % Inhibition at 0.03 μM, item Nc1nc(NC2CCN(C(=O)c3cccc(C(F)(F)F)c3)CC2)sc1C(=O)c1c(F)cccc1F [Example Q24]
65

Need CDK4 % Inhibition at 0.03 μM, item Nc1nc(NC2CCN(C(=O)C3CCCC3)CC2)sc1C(=O)c1c(F)cccc1F [Example Q57]
40

Need CDK4 % Inhibition at 0.03 μM, item COc1ccc(C(=O)N2CCC(Nc3nc(N)c(C(=O)c4c(F)cccc4F)s3)CC2)cc1 [Example Q28]
82

Need CDK4 % Inhibition at 0.03 μM, item COc1ccccc1C(=O)N1CCC(Nc2nc(N)c(C(=O)c3c(F)cccc3F)s2)CC1 [Example Q15]
52

Need CDK4 % Inhibition at 0.03 μM, item Nc1nc(NC2CCN(C(=O)Oc3ccc([N+](=O)[O-])cc3)CC2)sc1C(=O)c1c(F)cccc1F [Example Q84]
88

Need CDK4 % Inhibition at 0.03 μM, item Nc1nc(NC2CCN(C(=O)C3CCC3)CC2)sc1C(=O)c1c(F)cccc1F [Example Q56]
14

Need CDK4 % Inhibition at 0.03 μM, item Nc1nc(NC2CCN(C(=O)c3ccc(-c4ccccc4)cc3)CC2)sc1C(=O)c1c(F)cccc1F [Example Q32]
15

Need CDK4 % Inhibition at 0.03 μM, item Nc1nc(NC2CCN(C(=O)c3ccccc3Br)CC2)sc1C(=O)c1c(F)cccc1F [Example Q10]
57

Need CDK4 % Inhibition at 0.03 μM, item COC(=O)c1ccc(OC(=O)N2CCC(Nc3nc(N)c(C(=O)c4c(F)cccc4F)s3)CC2)cc1 [Example Q87]
77

Need CDK4 % Inhibition at 0.03 μM, item Nc1nc(NC2CCN(C(=O)c3cccnc3)CC2)sc1C(=O)c1c(F)cccc1F [Example Q80]
50

Need CDK4 % Inhibition at 0.03 μM, item Nc1nc(NC2CCN(C(=O)COc3ccccc3)CC2)sc1C(=O)c1c(F)cccc1F [Example Q41]
36

Need CDK4 % Inhibition at 0.03 μM, item Nc1nc(NC2CCN(C(=O)c3cc([N+](=O)[O-])cc([N+](=O)[O-])c3)CC2)sc1C(=O)c1c(F)cccc1F [Example Q70]
38

Where these numbers come from: patent US20050101595A1
